Give measured apparent KD of MS2 coat protein for each item. Keep answers brief.
- Tested on: MS2 coat protein
- EXPERIMENT: apparent KD of MS2 coat protein; higher = weaker reporter binding
- CONDITION SUMMARY: Eterna round: R107; input ligand: theophylline 20 uM
Answer with a number only, understood to be in nM.

Input: Look up apparent KD of MS2 coat protein for this sequence: UGUAUGGACUGAAGGAGCGGUAGAUAGCUUGAGGAUCACCCAAGUAAUAAGGCGAAAGCCUACCAGGUAGGUCGCAGUCCAUACU
Output: 30.8

Input: Can you handle GCCAUCGGCGGAAGCCGAUGGGAUACAGAAGGAGCGUGGAUUAACACAGGUAGGUCGCUGGACAUGAGGAUCACCCAUGUAAUAG [SSAA #8] next?
Output: 27.2

Input: Can you handle UAUCGUCAGACGGCCGCCACUAGAACAUGAGGAUCACCCAUGUAGGUCCUAGAUUCCUCAAUAACUAGGACCGGGUCUGACGAAU [(Trp1)-(Ms2)-(T)'-(M)'-(Trp2)_Design14] next?
Output: 137

Input: Can you handle ACAUGAGGACCGGAUACCAGCCACACAACAUGAGGAUCACCCAUGUCCCAUGUAUGAGGAGGCCCUUGGCAGCCGACAUACAUGA [Exclusion - Theophylline B #1] next?
Output: 157

Input: Can you handle GUCCUAGCGAUCGCUCGCUAGGACGCGGAUACCAGCGAGGUCCAUCGCCCUUGGCAGCCGAACAUGAGGAUCACCCAUGUCGGUA [#1 Same State - Theophylline A Attempt #18 (HarryS)] next?
Output: 14.2

Input: Can you handle CAUAGCAAAAGUGAUACCAGAGUUCGAGGGAACAUGAGGAUCACCCAUGUGCUUGUACAACUCCCUUGGCAGCACAGAGCAAUUA [theeternabot_sameState_MS2_Theo_B_16] next?
Output: 22.1

Input: Can you handle GCACUACAUGAGGAUCACCCAUGUGCAGAUACCAGAGGUGUAUGCCUCCCUUGGCAGCUGCGUCGCUCUGGAAACUUAUUGGUUU [Same State Theophylline A GF17] next?
Output: 26.6

Input: Can you handle AUAAUAAUGUCGGCCGCCACUAUAAACAUGAGGAACAUGAGGAUCACCCAUGUAUGAGGAUCACCUAGGACCGGGACUAAUAUUA [AstrosExyTryB#5] next?
Output: 57.1

Input: Can you handle GGGAAAUGAAUAGAAUGAGAUGACACAGAAGGAGCGCGGAUUAACGCAGGUAGGUCGCUGACAACAUGAGGAUCACCCAUGUUUC [#10 Same State - Arginine A] next?
Output: 17.6

Input: Can you handle GAGUCCACGGCGGCCGCCACUCGCGGCGCCACAUGGCGCCGGGACAUGAGGAUCACCCAUGUCCCGAGGACCGGGCCGAUCCUUA [Same State Typrtophan B GF3] next?
Output: 26.6

Input: Can you handle GACCGGUUAUAGCGCGAUUGUCUUGUGGAAGGAGCGCAGAGGGCUGCAGGUAGGUCGCCACAUGAGGAUCACCCAUGUCAGGAAA [Biraesge] next?
Output: 32.2

* * *

- Tested on: MS2 coat protein
- EXPERIMENT: apparent KD of MS2 coat protein, switch OFF state (with FMN for OFF switches, without FMN for ON switches); designed switch direction (-1 OFF switch, 1 ON switch): -1; higher = weaker reporter binding
- CONDITION SUMMARY: FMN input: 0 or 200 uM; Eterna round: R93 (includes R88 designs)
// FALSE strictly below 30 nM in apparent KD of MS2 coat protein; TRUE otherwise

Input: Record AGCUAGUCAGGAUAUACAUAAAAAAAAAAAAAAAGUGAUAAACAUGAGGAUCACCCAUGUAGAAGGGACUAGCA [Similarities v.4.2 (34 mutated to A)] ; criterion: apparent KD of MS2 coat protein no lower than 30 nM. Met?
Output: TRUE

Input: Can you handle AAAAAGUCAGGAUAUACGUACAUGUCAAAAGACGUGAAGGGACAUGAGGAUCACCCAUGUAGAAGGGACAAGAA [JL Stem Breaker 21] next?
Output: TRUE

Input: Can you handle CUUGUGUGAGGAUAUGUAAGAUGAAUAAGCAGUUCUAAAAGGCAGAAGGCACAUGAGGAUCACCCAUGUAAAAU [Sodirexe] next?
Output: FALSE

Input: Can you handle AAAAAGUCAGGAUAUGUCAAAGGUCACGAAAGUGACAAAGGACAGAAGGGACAUGAGGAUCACCCAUGUAGGAA [Fiskers Exclusion 4D1 65% - Late G segment 2] next?
Output: TRUE

* * *

Give measured apparent KD of MS2 coat protein for each item. Keep answers brief.
- Test system: MS2 coat protein
- EXPERIMENT: apparent KD of MS2 coat protein; designed switch direction (-1 OFF switch, 1 ON switch): -1; higher = weaker reporter binding
- CONDITION SUMMARY: Eterna round: R95; input ligand: microRNA oligo, concentration not stated

Input: Look up apparent KD of MS2 coat protein for this sequence: AAUAAAACAUAGGAUAUCGAAUUUAUUAUUUAACGAGAAGGAUGAACAUGAGGAUCACCCAUGUGGUAUCAUGG [Mat - Exclusion 6 - JL Mod - D24] (puzzle: Exclusion 6)
Output: 190 nM

Input: Can you handle UCUUAUUGCAAGGAUAUGCAAUUUAUUUUUUAUGCAGAAGGUGCAACAUGAGGAUCACCCAUGUUUCCGGGCAU [JR_E6_Sub037] (puzzle: Exclusion 6) next?
Output: 13.5 nM

Input: Can you handle AGGAUGUUAGGAUAUCGAAGGUUGUGGCAGGCGGGAAUUUGCGAGAAGGAACAUGAGGAUCACCCAUGUGAAAU [JR_Exclu4_Sub044] (puzzle: Exclusion 4) next?
Output: 19.7 nM

Input: Can you handle UUAUACGCUGAGGAUAUCUUCACUGAGAGGUGAAGAGAAGGCGGUACAUGAGGAUCACCCAUGUCUAUGGGCAG [Ex-6 Malc#20] (puzzle: Exclusion 6) next?
Output: 312 nM

Input: Can you handle AAAGAGCGAGGAUAUGCGUGCCGGUGCGGCCAGCCGAUGUGACAUGAGGAUCACCCAUGUAGAAGGCGCAGAAA [Excls2-VIII] (puzzle: Exclusion 2) next?
Output: 12.8 nM

Input: Can you handle UUUAAUUUUUUUUUUUUACAAGCUUUUUGCUCGUCUUAUACAUGAGGAUCACCCAUGUAAGUGGAAGAUAAAUUAUC [JMF 10] (puzzle: Sensor v3, turn-off variant 2) next?
Output: 21.4 nM

Input: Can you handle UAAUACAAGUAAGGAUUCUACAUGAGGAUCACCCAUGUGCUCGUCUUAUAAAGUACUAUCACGAAAGUGAUAGUACU [Mat - Sensor v3 - turn-off var 1 - Eli Mod - D100] (puzzle: Sensor v3, turn-off variant 1) next?
Output: 199 nM

Input: Can you handle AAAGAACAUGAGGAUCACCCAUGUGAGGAUAUCGAGAAAAGAAAGAAGAAGAAGAAAACGAGAAGGCACAAGAA [The design that might work] (puzzle: Exclusion 1) next?
Output: 65 nM

Input: Can you handle CUAGCUUCGGCUAGUACAAGCUUUUUGCUCGUCUUAUUAACAUGAGGAUCACCCAUGUCAAAGAGACCUCAUGUAUU [Sensor v3 - turn-off variant 2 - 2] (puzzle: Sensor v3, turn-off variant 2) next?
Output: 15.5 nM

Input: Can you handle CGAGAGCGAGGAUAUACACAACUCCUCACUGUCAAGAAAGGACAUGAGGAUCACCCAUGUAGAAGGUGCAAAAC [Quries] (puzzle: Exclusion 2) next?
Output: 125 nM

Input: Can you handle CCGGAAAUACAGGAUAUCGUAUCGGAUACGAUACGAGAAGGGUAUACAUGAGGAUCACCCAUGUGUCCUACCGG [Fiskers Ex 6 - 51] (puzzle: Exclusion 6) next?
Output: 23.6 nM

* * *

- Tested on: MS2 coat protein
- EXPERIMENT: apparent KD of MS2 coat protein; higher = weaker reporter binding
- CONDITION SUMMARY: Eterna round: R107; input ligand: theophylline 2 mM
// Not met strictly below 0.04 µM in apparent KD of MS2 coat protein; Met otherwise

Input: Record UCGCUCUGGGUGAAAUCCGGAGAUGUGGAAGGAGCGCUCGAAAGAGCAGGUAGGUCGCCAACGGACAUGAGGAUCACCCAUGUAC [Same State - Arginine A (Freestyle 20)] ; criterion: apparent KD of MS2 coat protein no lower than 0.04 µM. Met?
Output: Met

Input: Can you handle AGAAUAUAGUCGGCCGCCACUCUACAAACAUGAGGAUCACCCAUGUUCACAUAGUGGAAACACAUGAGGACCGGGACAUAGGCAU [#17 Same State - Tryptophan B] next?
Output: Not met

Input: Can you handle GGGCGUGUGGUGCGGCGUGCUCCGCUCCGUCGAGGACCGGUACGGCCGCCACUCGACAUGAGGAUCACCCAUGUGCGAGCGCGCG [#1 Exclusion - Tryptophan A Attempt #9 (HarryS)] next?
Output: Not met

Input: Can you handle CCUCAAUCGUCGGCCGCCACUGAAUCAUGCGGAUACAUGAGGAUCACCCAUGUGGGUGUGGUACGCAGGACCGGGACAAGACCCG [#14 Same State - Tryptophan B] next?
Output: Met

Input: Can you handle GCUGCCAUACGAAGGAGCGCUGUUGUAGUGAGGCGAACAUGAGGAUCACCCAUGUGGCAGCAGCAGGUAGGUCGCGUAUGGCAGC [EAB #13] next?
Output: Not met
